B1: Osa-1-4 twister ribozyme (parent)
chain: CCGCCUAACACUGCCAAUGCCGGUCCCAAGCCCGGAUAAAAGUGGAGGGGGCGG

variants of: B1; assay: self-cleavage, relative activity (ratio to wild type); higher = more cleavage; co-transcriptional
Entries and their self-cleavage
Measured parameter: self-cleavage

> print(dat)
    variant.label  measured.parameter  measured
 1      A29C G22U       self-cleavage      0.05
 2       A39C A8U       self-cleavage       0.1
 3      A40U G44A       self-cleavage      0.25
 4      C11G C33A       self-cleavage      0.04
 5      A46C C11A       self-cleavage      0.04
 6       C20A C9G       self-cleavage      0.68
 7       A7U G45A       self-cleavage      0.05
 8      C11G G23A       self-cleavage      0.05
 9      G50A U43G       self-cleavage      0.15
10      C14A G13U       self-cleavage      0.02
11       A16G C9G       self-cleavage      0.92
12       C31U C9A       self-cleavage      0.11
13      A36C C27U       self-cleavage      0.09
14      C15A G42U       self-cleavage      0.05
15      A29U A46C       self-cleavage      0.02
16      C14U U43C       self-cleavage      0.09
17      A29C C27A       self-cleavage      0.04
18      A10C C26A       self-cleavage      0.03
19      A16G G34A       self-cleavage      0.84
20      C11A U12C       self-cleavage      0.14
21      C33G G44C       self-cleavage      0.05
22      A38C C15G       self-cleavage      0.11
